# Test system: NCI-H322M lung
# EXPERIMENT NOTES: NCI-60 one-dose screen, 48 h (100 = growth as untreated, 0 = no growth, -100 = all killed)
# CONDITION INFO: 10 µM
This is part of a sample that, as a whole, favours compounds with a hit. Of some 83,000 tested, about 20% had one in any assay. The source made the active and inactive calls. The calls were made as follows: active = growth percent below 10; inactive = the rest.
PROPERTY MEASURED: growth

Known growth results, listed for orientation:
1) C=C1[C@@H](C)C2[C@H](Cc3ccccc3)NC(=O)[C@]23[C@H](OC(C)=O)/C=C/[C@@](C)(O)C(=O)[C@@H](C)C/C=C/[C@H]3[C@@H]1O (some centres undefined) : 87.9% (inactive)
2) N#Cc1nc(-c2ccccc2)oc1N1CCC(S(=O)(=O)F)CC1 : 115% (inactive)
3) CC(C)=CCc1c2c(c(O)c3c1O[C@]14C(=C[C@@H]5C[C@H]1C(C)(C)O[C@@]4(C/C=C(/C)C(=O)O)C5=O)C3=O)C=CC(C)(C)O2 : -84.9% (active)

From here, focus on the item given below.
QUERY: May I ask what growth has been recorded for CC1=C(CN(O)C(N)=O)C2=C(C)C3(CC3)[C@@](C)(O)C(=O)C2=C1 ?
RESULT: 5.16% (active)

====

Assign growth to each entry below.
# Test system: UACC-62 melanoma
# EXPERIMENT NOTES: NCI-60 one-dose screen, 48 h (100 = growth as untreated, 0 = no growth, -100 = all killed)
# CONDITION INFO: 10 µM
Compounds without any hit were thinned out: in the full panel of roughly 83,000, 20% have a hit.
Numbers only, in %.

Known growth results, listed for orientation:
1) Cc1ccc(CNc2nc3ccc(OC/C(=C/F)CN)cc3o2)cn1 : 90.8
2) N#Cc1c(-n2c(Br)c(Br)c3cc(Br)ccc32)[nH]c2c(Br)cc(Br)cc12 : -30.8
3) CC1=C[C@H]2O[C@@H]3C[C@H]4OC(=O)/C=C\C=C\[C@H]([C@@H](C)O)OCC/C(C)=C/C(=O)OC[C@@]2(CC1)[C@]4(C)[C@]31CO1 : -58.6
4) COc1cc2c(cc1OC)[C@@H]1N(CC2)C(=O)c2ccccc2[C@@]1(C)C(=O)O : 95.8
5) NC1CCc2cc(O)c(O)cc2C1 (centres undefined) : 99.4

I would be grateful if you could provide growth for each of the following entries.
1. CC1=C2C(=C[C@@](C)(C=O)[C@@H]2O)C(=O)[C@](C)(O)C12CC2
2. COC1[C@@H]2C[C@H]3C(C)(C)O[C@@](C/C=C(/C)C(=O)O)(C2=O)[C@]32Oc3c(CC=C(C)C)c4c(c(O)c3C(=O)[C@H]12)C=CC(C)(C)O4 (some centres undefined)
3. O=C(CCCc1ccc(N(CCCl)CCCl)cc1)OCc1ccccc1
4. COc1cc2c(O[C@@H]3OC[C@H](O)[C@H](O)[C@H]3O)c3c(c(-c4ccc5c(c4)OCO5)c2cc1OC)C(=O)OC3

RESULT:
[-48.5, -70, 77.8, 20.8]

I would be grateful if you could provide growth for each of the following entries.
1. CN1C(=O)[C@]23SSC1(C)C(=O)N2[C@H]1Nc2ccccc2C1([C@@]12c4ccccc4N[C@@H]1N1C(=O)C4(C)SS[C@]1(C(=O)N4C)[C@H]2O)[C@@H]3O (some centres undefined)
2. COc1cccc2c1cc([N+](=O)[O-])c1c(C(=O)O)cc3c(c12)OCO3
3. CC(C)=CCc1c2c(c(O)c3c1O[C@]14C(=C[C@@H]5C[C@H]1C(C)(C)O[C@@]4(C/C=C(/C)C(=O)O)C5=O)C3=O)C=CC(C)(C)O2
4. CC(=O)O[C@@H]1C[C@H]2O[C@@H]3C=C(C)CC[C@]3(C)[C@]1(C)[C@]21CO1
5. C[C@@H]1CCC/C=C/[C@H]2C[C@@H](O)C[C@@H]2[C@@H](O)/C=C/C(=O)O1

RESULT:
1: -79.2; 2: 103; 3: -69.4; 4: 2.75; 5: 25.9

I would be grateful if you could provide growth for each of the following entries.
1. CC(=O)O[C@@H]1[C@@H]2O[C@H]2[C@@](C)(O)C(=O)[C@@H](C)C/C=C/[C@H]2[C@@H]3O[C@]3(C)[C@@H](C)C3[C@H](Cc4ccccc4)NC(=O)[C@@]312 (some centres undefined)
2. C/C=C\C(=O)O[C@@H]1CC2O[C@@H]3C=C(C)C(=O)C[C@]3(C)[C@]1(C)[C@]21CO1

RESULT:
[78.8, -27.2]

I would be grateful if you could provide growth for each of the following entries.
1. CC1=C2C(=C[C@@](C)(COC(=O)c3ccc(S(=O)(=O)F)cc3)[C@@H]2O)C(=O)[C@](C)(O)C12CC2
2. COC(=O)[C@H]1[C@@H](O)[C@@]2(O)c3c(OC)cc(OC)cc3O[C@@]2(c2ccc(OC)cc2)[C@@H]1c1ccccc1
3. C=C1[C@@H](C)C2[C@H](Cc3ccccc3)NC(=O)[C@]23[C@H](OC(C)=O)/C=C/[C@@](C)(O)C(=O)[C@@H](C)C/C=C/[C@H]3[C@@H]1O (some centres undefined)

RESULT:
-77.1
-14.9
84.5

====

# System: BT-549 breast
# EXPERIMENT NOTES: NCI-60 one-dose screen, 48 h
# CONDITION INFO: 10 µM
Compounds without any hit were thinned out: in the full panel of roughly 83,000, 20% have a hit. Calls of active or inactive are those of the source. How the source made its calls: active means growth percent below 10; inactive means the rest.
Bench note: report the call from active, inactive

1. CC1=C2C(=O)[C@](C)(CO)C=C2C(=O)[C@](C)(O)C12CC2 : active

QUERY: Hi, sorry to bother you, what did the test record for CN1C(=O)[C@]23SSC1(C)C(=O)N2[C@H]1Nc2ccccc2C1([C@@]12c4ccccc4N[C@@H]1N1C(=O)C4(C)SS[C@]1(C(=O)N4C)[C@H]2O)[C@@H]3O (some centres not stated) ?
RESULT: active

QUERY: Hi, sorry to bother you, what did the test record for N#Cc1c(-n2c(Br)c(Br)c3cc(Br)ccc32)[nH]c2c(Br)cc(Br)cc12 ?
RESULT: active

QUERY: Hi, sorry to bother you, what did the test record for C/C=C/CC(C)C(O)[C@H](NC(=O)[C@@H]1CCCN1C(=O)C(C)(C)NC(=O)CCCCCCCCC)C(=O)N[C@@](C)(CC)C(=O)N[C@@H](CCC(N)=O)C(=O)N[C@H](CCC(N)=O)C(=O)NC(C)(C)C(=O)N[C@@](C)(CC)C(=O)N[C@@H](CCC(N)=O)C(=O)N[C@H](CC(C)C)C(=O)N[C@H](CO)CC(C)C (some centres not stated) ?
RESULT: active

QUERY: Hi, sorry to bother you, what did the test record for CC1=C(CN(O)C(N)=O)C2=C(C)C3(CC3)[C@](C)(O)C(=O)C2=C1 ?
RESULT: inactive

QUERY: Hi, sorry to bother you, what did the test record for CC1=C2C(=C[C@@](C)(COC(=O)c3ccc(S(=O)(=O)F)cc3)[C@@H]2O)C(=O)[C@](C)(O)C12CC2 ?
RESULT: active

QUERY: Hi, sorry to bother you, what did the test record for CCC(C)[C@H]1C(=O)O[C@H](C(C)C)C(=O)N(C)[C@@H](C(C)C)C(=O)O[C@H](C(C)C)C(=O)N(C)[C@@H](C(C)C)C(=O)O[C@H](C(C)C)C(=O)N1C (some centres not stated) ?
RESULT: inactive

QUERY: Hi, sorry to bother you, what did the test record for CC(=O)O[C@@H]1[C@@H]2O[C@H]2[C@@](C)(O)C(=O)[C@@H](C)C/C=C/[C@H]2[C@@H]3O[C@]3(C)[C@@H](C)C3[C@H](Cc4ccccc4)NC(=O)[C@@]312 (some centres not stated) ?
RESULT: inactive

QUERY: Hi, sorry to bother you, what did the test record for CN(CCF)/N=N/c1nc[nH]c1C(N)=O ?
RESULT: inactive

QUERY: Hi, sorry to bother you, what did the test record for O=C(CCCc1ccc(N(CCCl)CCCl)cc1)OCc1ccccc1 ?
RESULT: inactive

QUERY: Hi, sorry to bother you, what did the test record for CC1=C[C@H]2O[C@@H]3C[C@H]4OC(=O)/C=C\C=C\[C@H]([C@@H](C)O)OCC[C@@H](C)[C@H](O)C(=O)OC[C@@]2(CC1)[C@]4(C)[C@]31CO1 ?
RESULT: active

QUERY: Hi, sorry to bother you, what did the test record for C/C=C/CC(C)C(O)[C@H](NC(=O)[C@@H]1CCCN1C(=O)C(C)(C)NC(=O)CCCCCCCCC)C(=O)N[C@@](C)(CC)C(=O)N[C@@H](CCC(N)=O)C(=O)N[C@H](CCC(N)=O)C(=O)NC(C)(C)C(=O)NC(C)(C)C(=O)N[C@@H](CCC(N)=O)C(=O)N[C@H](CC(C)C)C(=O)N[C@H](CO)CC(C)C (some centres not stated) ?
RESULT: active
